Quick list: Reciprocal neutralising titre of culture supernatant (reciprocal titre) per entry.
target: hemagglutinin of A/Vietnam/1203/04 (H5N1) (influenza A virus A/Vietnam/1203/04 (H5N1)); assay: cell-based or functional assay
PROPERTY_NAME: Reciprocal neutralising titre of culture supernatant (reciprocal titre)

- BINDER: "FLD129 (antibody, V domains shown) VH: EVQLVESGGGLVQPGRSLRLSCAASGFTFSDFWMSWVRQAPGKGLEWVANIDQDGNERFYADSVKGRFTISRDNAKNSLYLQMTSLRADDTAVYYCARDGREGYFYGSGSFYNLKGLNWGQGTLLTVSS VL: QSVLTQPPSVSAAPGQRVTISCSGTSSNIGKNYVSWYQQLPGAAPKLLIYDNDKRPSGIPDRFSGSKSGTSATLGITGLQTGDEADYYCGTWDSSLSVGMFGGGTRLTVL"
  ASSAY_RESULT: 323
- BINDER: "FLD127 (antibody, V domains shown) VH: QVQLVESGGGVVQPGRSLRLSCAASGFTFSSYGMHWVRQAPGKGLEWVAVIWYDGDNKYYGDSVKGRFTISRDNSKNTLFLQMNSLRAEDTAVYYCAKDTADHGDYVDLGFFDAWGQGTLVTVSS VL: DIQMTQSPSSVSASVGDRVTITCRASQDVSTWLAWYQLKPGKAPKLLIYAASSLQSGVPSRFSGSGSGTDFTLTVSSLQPEDFATYYCQQANSFPFTFGPGTKVDIK"
  ASSAY_RESULT: 81
- BINDER: "FLD20.19 (antibody, V domains shown) VH: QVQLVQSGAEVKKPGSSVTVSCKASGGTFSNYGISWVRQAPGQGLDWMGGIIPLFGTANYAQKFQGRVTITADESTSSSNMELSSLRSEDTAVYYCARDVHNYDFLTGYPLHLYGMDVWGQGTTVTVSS VL: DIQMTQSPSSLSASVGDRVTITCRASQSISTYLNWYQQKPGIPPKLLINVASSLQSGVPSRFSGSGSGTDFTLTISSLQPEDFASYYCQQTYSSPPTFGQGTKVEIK"
  ASSAY_RESULT: 181
- BINDER: "FLD122 (antibody, V domains shown) VH: QFQLVQSGPEVKKPGTSVKVSCKASGYTSTTYGISWVRQVPGQGLEWMGWINPYNGNPHYGQKFQGRVTLTRDTSTNTAYLEILSLRSDDTAVYYCARDGWGQQLVPYYFDYWGQGTLVTVSS VL: DIVMTQSPLSLPVTPGEPASISCRASQSLLHSNGYNYLDWYLQKPGQSPQLLIQLGSTRASGVPDRFSGSGSGTDFTLEISRVEAEDVGVYYCMQALQLPLAFGQGTRLEIK"
  ASSAY_RESULT: 40
- BINDER: "FLD84 (antibody, V domains shown) VH: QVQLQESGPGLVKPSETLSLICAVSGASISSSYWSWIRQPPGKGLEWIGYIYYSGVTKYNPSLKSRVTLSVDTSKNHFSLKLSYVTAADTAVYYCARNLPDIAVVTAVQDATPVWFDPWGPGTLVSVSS VL: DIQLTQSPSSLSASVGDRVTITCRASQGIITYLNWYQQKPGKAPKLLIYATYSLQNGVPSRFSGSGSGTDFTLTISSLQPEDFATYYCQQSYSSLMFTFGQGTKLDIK"
  ASSAY_RESULT: 16
- BINDER: "FLD93 (antibody, V domains shown) VH: WWQLVQSGAEVKKPGSSVKVSCKASGGTFSSYDISWVRQAPGQGLEWMGGIIPIYGTANYAQKFQGRVTITADESTSTAYMELSSLRSEDTAVYYCARAGGDSSGYYGALGRFFQHWGQGTLVTVSS VL: VIWMTQSPSLLSASTGDRVTISCRMSQGISSYLAWYQQKPGKAPELLIHTAYTLKSGVPSRFSGSGSGKDFTLTISGLQSEDFATYYCQQYYSFPYTFGQGTKVEIK"
  ASSAY_RESULT: 40
- BINDER: "FLD132 (antibody, V domains shown) VH: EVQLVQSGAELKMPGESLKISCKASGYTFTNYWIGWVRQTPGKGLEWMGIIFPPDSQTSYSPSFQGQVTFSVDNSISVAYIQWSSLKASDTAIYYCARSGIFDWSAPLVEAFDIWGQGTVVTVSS VL: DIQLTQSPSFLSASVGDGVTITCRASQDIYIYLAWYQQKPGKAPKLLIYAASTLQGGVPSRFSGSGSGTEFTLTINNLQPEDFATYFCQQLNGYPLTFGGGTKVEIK"
  ASSAY_RESULT: 1024

All values here come from patent US20100278834A1.
